I'd appreciate it if you could supply deltaG values for the items below.
Target: PA-I galactophilic lectin (Pseudomonas aeruginosa (strain ATCC 15692 / PAO1 / 1C / PRS 101 / LMG12228))
Test: Binding affinity to Pseudomonas aeruginosa LecA expressed in Escherichia coli BL21 (DE3) cells assessed as gibbs free energy change by isothermal titration calorimetry

1) C=C(c1ccc(S[C@@H]2O[C@H](CO)[C@H](O)[C@H](O)[C@H]2O)cc1)c1ccc2ccccc2c1 : -6.88 kcal/mol
2) C=C(c1ccc(OC)cc1)c1cccc(S[C@@H]2O[C@H](CO)[C@H](O)[C@H](O)[C@H]2O)c1 : -6.96 kcal/mol

Can you give me deltaG for all of these, one by one?
1. C=C(c1ccc(OC)cc1)c1ccc(S[C@@H]2O[C@H](CO)[C@H](O)[C@H](O)[C@H]2O)cc1
2. COc1ccc(C(=O)c2cc(OC)c(OC)c(OC)c2)cc1S[C@@H]1O[C@H](CO)[C@H](O)[C@H](O)[C@H]1O
3. O=Cc1ccc(S[C@@H]2O[C@H](CO)[C@H](O)[C@H](O)[C@H]2O)cc1
4. COc1ccc(S[C@@H]2O[C@H](CO)[C@H](O)[C@H](O)[C@H]2O)cc1

Output:
["-7.55 kcal/mol", "-8.17 kcal/mol", "-6.86 kcal/mol", "-6.72 kcal/mol"]

Source: ChEMBL document CHEMBL5352480
